Let's look at some molecules and their measured residual activity.
target: AKT2 (human) (UniProt P31751); experiment: radiometric filter-binding kinase assay, Kinase HotSpot; settings: compound 0.5 µM; ATP 10 µM
Sequence (P31751 whole entry, looked up): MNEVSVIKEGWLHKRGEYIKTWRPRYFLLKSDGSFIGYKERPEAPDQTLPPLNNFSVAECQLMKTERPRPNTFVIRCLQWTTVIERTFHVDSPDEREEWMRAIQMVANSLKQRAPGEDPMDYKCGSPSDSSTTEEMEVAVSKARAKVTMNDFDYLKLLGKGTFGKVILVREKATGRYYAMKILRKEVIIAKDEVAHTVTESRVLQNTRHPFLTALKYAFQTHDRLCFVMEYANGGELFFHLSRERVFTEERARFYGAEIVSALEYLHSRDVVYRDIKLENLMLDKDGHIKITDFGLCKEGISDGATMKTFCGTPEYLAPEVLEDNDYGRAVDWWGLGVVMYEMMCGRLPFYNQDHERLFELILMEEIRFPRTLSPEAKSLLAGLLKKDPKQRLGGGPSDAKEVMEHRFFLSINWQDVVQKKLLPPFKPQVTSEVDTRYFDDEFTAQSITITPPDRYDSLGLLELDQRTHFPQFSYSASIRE

For AKT2 (human) (UniProt P31751), provide residual activity of `c1ccc(-c2cnc(Nc3ccc(OCCN4CCCC4)cc3)s2)cc1` please.
92.4%

Enter reported residual activity observed with AKT2 (human) (UniProt P31751) for `Cc1cc(Nc2nc(-c3ccccc3)nc3ccccc23)n[nH]1`
127%

Notebook: pull reported residual activity for AKT2 (human) (UniProt P31751), entry `COc1cc2ncnc(Nc3ccc(O)c(Br)c3)c2cc1OC`
98.7%

What residual activity appears in the records for this molecule with AKT2 (human) (UniProt P31751)? `CCc1nc(-c2ccc(OC)cc2)[nH]c1-c1ccncc1`
100%

Observed residual activity on AKT2 (human) (UniProt P31751) for `O=C(c1ccccc1)c1ccc(N2CCOCC2)cc1O` , please.
97.9%

Please tell me: residual activity of `COc1cc2c(Nc3ccc(Br)cc3F)ncnc2cc1OCC1CCN(C)CC1` , system AKT2 (human) (UniProt P31751)?
110%

Lookup: residual activity / AKT2 (human) (UniProt P31751) / `O=C1NC(=O)c2c1c1c3ccccc3[nH]c1c1[nH]c3cc(Br)ccc3c21`
86.9%

# get_value(readout= residual activity, system= AKT2 (human) (UniProt P31751)) for `N/C(=N\N=C/c1ccc(-c2cccc([N+](=O)[O-])c2)o1)N[N+](=O)[O-]`
99.7%

Kindly state the measured residual activity obtained for `CCOc1cc2ncnc(Nc3cccc(Br)c3)c2cc1OCC` with AKT2 (human) (UniProt P31751).
87.6%

Find the measured residual activity: item `O=c1cc(N2CCOCC2)oc2c(-c3ccccc3)cccc12` , target or system AKT2 (human) (UniProt P31751).
94%

Form field - read-out: residual activity; system: AKT2 (human) (UniProt P31751); submitted item: `N#CCCc1ccc2c(c1)-c1[nH]c3ccc([N+](=O)[O-])cc3c1CC(=O)N2`
100%

Entry `COc1cc2c(cc1OC)-c1[nH]nc(Nc3cccc(F)c3)c1C2` , system AKT2 (human) (UniProt P31751): what residual activity was measured?
95.3%

Find residual activity (AKT2 (human) (UniProt P31751)) for the entry `O=C1NC(=O)c2cc(Nc3ccc(F)cc3)c(Nc3ccc(F)cc3)cc21`
95.1%

Form field: residual activity recorded for `CCCCc1c(-c2ccc(O)cc2)[nH]c2nccnc12` with AKT2 (human) (UniProt P31751) (enter value)
95.3%

Report residual activity for `O=c1c2ccccc2[nH]c(=S)n1CCN1CCC(=C(c2ccc(F)cc2)c2ccc(F)cc2)CC1` tested on AKT2 (human) (UniProt P31751).
101%

Request - read-out residual activity | tested on AKT2 (human) (UniProt P31751) | molecule `O=C(O)c1ccc2c3c1cccc3c(=O)n1c3ccccc3nc21`
101%

----------
biological target: BTK (human) (UniProt Q06187); assay: radiometric filter-binding kinase assay, Kinase HotSpot; conditions: compound 0.5 µM; ATP 10 µM
Sequence (Q06187 whole entry, looked up): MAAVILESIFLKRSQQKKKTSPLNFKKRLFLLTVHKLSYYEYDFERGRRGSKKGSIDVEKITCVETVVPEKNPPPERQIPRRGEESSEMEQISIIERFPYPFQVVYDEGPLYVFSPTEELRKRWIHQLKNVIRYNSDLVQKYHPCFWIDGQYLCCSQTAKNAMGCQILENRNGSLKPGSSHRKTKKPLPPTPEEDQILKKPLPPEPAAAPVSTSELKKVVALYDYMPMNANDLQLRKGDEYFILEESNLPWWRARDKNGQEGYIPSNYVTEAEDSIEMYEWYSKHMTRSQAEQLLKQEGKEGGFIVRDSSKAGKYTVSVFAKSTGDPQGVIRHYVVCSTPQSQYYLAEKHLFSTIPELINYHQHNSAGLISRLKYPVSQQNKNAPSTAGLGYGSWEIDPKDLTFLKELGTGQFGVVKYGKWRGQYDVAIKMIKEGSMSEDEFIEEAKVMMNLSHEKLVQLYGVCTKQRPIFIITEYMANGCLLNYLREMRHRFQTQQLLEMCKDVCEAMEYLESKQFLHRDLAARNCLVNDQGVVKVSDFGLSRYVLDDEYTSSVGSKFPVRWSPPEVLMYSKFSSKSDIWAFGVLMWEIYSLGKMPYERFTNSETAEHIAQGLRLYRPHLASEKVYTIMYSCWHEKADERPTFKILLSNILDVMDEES
Below, each entry is listed alongside its reported residual activity.
Give just the numeric value; % need not be written.

structure smiles string: N#C/C(=C1/Nc2ccccc2S1)c1ccnc(NCCc2cccnc2)n1
readout number: 88.8
--
structure smiles string: c1ccc(-c2cnc(Nc3ccc(OCCN4CCCC4)cc3)s2)cc1
readout number: 101
--
structure smiles string: N#Cc1c(NC(=O)c2cccc3ccccc23)sc2c1CCCC2
readout number: 95
--
structure smiles string: O=c1c2ccccc2[nH]c(=S)n1CCN1CCC(=C(c2ccc(F)cc2)c2ccc(F)cc2)CC1
readout number: 105

Alright, here's another molecule for you.
Give its residual activity value. Item: `CCOc1cc2ncnc(Nc3cccc(Br)c3)c2cc1OCC`
72.7

----------
target: MAP3K11 (human) (UniProt Q16584); experiment: radiometric filter-binding kinase assay, Kinase HotSpot; conditions: compound 0.5 µM; ATP 10 µM
Sequence (Q16584 whole entry, looked up): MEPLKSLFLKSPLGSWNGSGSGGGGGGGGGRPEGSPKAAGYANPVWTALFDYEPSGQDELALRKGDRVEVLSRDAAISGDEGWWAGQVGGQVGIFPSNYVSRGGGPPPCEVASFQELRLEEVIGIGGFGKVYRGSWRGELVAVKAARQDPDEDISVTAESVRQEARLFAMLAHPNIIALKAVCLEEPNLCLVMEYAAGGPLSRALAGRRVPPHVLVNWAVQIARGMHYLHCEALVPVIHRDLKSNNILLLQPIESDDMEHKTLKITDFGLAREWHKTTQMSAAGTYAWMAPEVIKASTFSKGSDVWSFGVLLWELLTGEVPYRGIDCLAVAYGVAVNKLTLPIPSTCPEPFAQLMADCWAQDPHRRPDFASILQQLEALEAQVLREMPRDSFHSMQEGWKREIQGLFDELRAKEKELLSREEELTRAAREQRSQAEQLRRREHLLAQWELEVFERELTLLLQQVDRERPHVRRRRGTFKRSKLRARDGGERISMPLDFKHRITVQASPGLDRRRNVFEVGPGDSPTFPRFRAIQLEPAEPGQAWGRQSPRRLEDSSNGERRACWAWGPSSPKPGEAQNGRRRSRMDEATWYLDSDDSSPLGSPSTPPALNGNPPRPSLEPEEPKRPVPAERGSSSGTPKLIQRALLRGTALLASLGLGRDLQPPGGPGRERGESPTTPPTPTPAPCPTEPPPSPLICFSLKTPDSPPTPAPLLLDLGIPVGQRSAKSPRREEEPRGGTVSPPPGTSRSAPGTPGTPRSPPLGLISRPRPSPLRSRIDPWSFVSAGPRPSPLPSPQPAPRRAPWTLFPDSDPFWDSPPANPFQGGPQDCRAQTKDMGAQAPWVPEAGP
Note to self: residual activity under 80% means Yes, ties and anything higher get No.

structure smiles string: COc1cc2c(cc1OC)-c1[nH]nc(Nc3cccc(F)c3)c1C2
tgt: MAP3K11 (human) (UniProt Q16584)
discrete label: No

structure smiles string: N/C(=N\N=C/c1ccc(-c2cccc([N+](=O)[O-])c2)o1)N[N+](=O)[O-]
tgt: MAP3K11 (human) (UniProt Q16584)
discrete label: No

structure smiles string: N#Cc1c(NC(=O)c2cccc3ccccc23)sc2c1CCCC2
tgt: MAP3K11 (human) (UniProt Q16584)
discrete label: No

structure smiles string: CCCCc1c(-c2ccc(O)cc2)[nH]c2nccnc12
tgt: MAP3K11 (human) (UniProt Q16584)
discrete label: Yes

structure smiles string: O=C(c1ccccc1)c1ccc(N2CCOCC2)cc1O
tgt: MAP3K11 (human) (UniProt Q16584)
discrete label: No

structure smiles string: Cc1cc(Nc2nc(-c3ccccc3)nc3ccccc23)n[nH]1
tgt: MAP3K11 (human) (UniProt Q16584)
discrete label: Yes

In plain terms, does `O=C(O)c1ccc2c3c1cccc3c(=O)n1c3ccccc3nc21` come in under 80% for residual activity?
Yes

Please check: residual activity for `Nc1ncnc2c1cnn2-c1ccccc1` , strictly under 80% or not?
No

Identify whether the compound `COc1cccc(-c2cc(=O)c3ccccc3o2)c1N` records residual activity below 80%.
No

Determine if `c1ccc(-c2cnc(Nc3ccc(OCCN4CCCC4)cc3)s2)cc1` shows residual activity strictly lower than 80%.
No

Field: below-cutoff. Rule: recorded residual activity strictly less than 80%. Subject: `O=C1NC(=O)c2cc(Nc3ccc(F)cc3)c(Nc3ccc(F)cc3)cc21`
No

----------
Reported residual activity values are given for each entry in this list.
molecular target: PDGFRA (human) (UniProt P16234); assay: radiometric filter-binding kinase assay, Kinase HotSpot; conditions: compound 0.5 µM; ATP 10 µM
Sequence (P16234 whole entry, looked up): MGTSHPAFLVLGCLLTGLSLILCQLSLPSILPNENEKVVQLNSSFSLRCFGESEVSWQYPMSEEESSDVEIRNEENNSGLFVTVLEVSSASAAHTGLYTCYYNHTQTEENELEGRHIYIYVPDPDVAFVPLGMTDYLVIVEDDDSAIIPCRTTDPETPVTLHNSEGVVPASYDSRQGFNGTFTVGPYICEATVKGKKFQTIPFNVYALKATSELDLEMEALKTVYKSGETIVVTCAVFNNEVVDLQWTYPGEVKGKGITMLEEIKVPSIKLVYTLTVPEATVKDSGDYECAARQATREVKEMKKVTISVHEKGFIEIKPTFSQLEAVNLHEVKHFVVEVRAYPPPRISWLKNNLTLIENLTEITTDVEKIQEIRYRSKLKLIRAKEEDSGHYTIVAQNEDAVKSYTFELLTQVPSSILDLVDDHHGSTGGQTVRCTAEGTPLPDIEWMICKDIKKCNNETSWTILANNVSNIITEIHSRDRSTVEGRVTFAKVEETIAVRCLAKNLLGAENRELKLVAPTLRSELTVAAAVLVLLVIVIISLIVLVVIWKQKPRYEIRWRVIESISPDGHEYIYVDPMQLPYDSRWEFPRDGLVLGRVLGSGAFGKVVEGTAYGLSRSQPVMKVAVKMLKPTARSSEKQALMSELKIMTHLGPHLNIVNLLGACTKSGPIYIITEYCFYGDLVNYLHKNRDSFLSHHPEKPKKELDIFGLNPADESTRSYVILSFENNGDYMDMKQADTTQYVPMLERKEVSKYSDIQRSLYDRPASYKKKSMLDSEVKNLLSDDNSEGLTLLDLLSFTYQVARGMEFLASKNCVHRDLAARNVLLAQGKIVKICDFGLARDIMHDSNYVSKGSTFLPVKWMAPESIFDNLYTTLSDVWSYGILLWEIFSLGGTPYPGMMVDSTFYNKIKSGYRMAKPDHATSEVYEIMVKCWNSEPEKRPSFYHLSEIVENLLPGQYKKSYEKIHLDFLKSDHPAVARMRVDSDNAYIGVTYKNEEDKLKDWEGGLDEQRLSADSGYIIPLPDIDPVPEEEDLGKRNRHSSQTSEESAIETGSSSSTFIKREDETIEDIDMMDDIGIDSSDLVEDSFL
Give the value, in units of %, as a plain number.

Worked examples follow.
structure smiles string: O=c1c2ccccc2[nH]c(=S)n1CCN1CCC(=C(c2ccc(F)cc2)c2ccc(F)cc2)CC1
readout number: 97
--
structure smiles string: O=c1[nH]c2ccccc2n1C1CCN(Cc2ccc(-c3nc4cc5[nH]cnc5cc4nc3-c3ccccc3)cc2)CC1
readout number: 98.2
--
structure smiles string: CCCCc1c(-c2ccc(O)cc2)[nH]c2nccnc12
readout number: 95.1
--
structure smiles string: O=c1cc(N2CCOCC2)oc2c(-c3ccccc3)cccc12
readout number: 94.6
--
structure smiles string: Cc1cc(Nc2nc(-c3ccccc3)nc3ccccc23)n[nH]1
readout number: 81.6

Look up residual activity: `CCc1nc(-c2ccc(OC)cc2)[nH]c1-c1ccncc1`
96.3

Reported residual activity for `COc1cc2c(N3CCN(C(=O)Nc4ccc(OC(C)C)cc4)CC3)ncnc2cc1OCCCN1CCCCC1` : what is it?
11.1

Value lookup for residual activity; key = `FC(F)(F)c1ccc(/C=C/c2nc(COc3ccc(CCCCn4ccnn4)cc3)co2)cc1`
104

Look up residual activity for this compound: `COc1cccc(-c2cc(=O)c3ccccc3o2)c1N`
103

Looking for the measured residual activity of `Cn1cc(/C=C2\C(=O)Nc3ccc(S(N)(=O)=O)cc32)c2ccccc21` , can you help?
81

----------
target: CHUK (human) (UniProt O15111); assay: radiometric filter-binding kinase assay, Kinase HotSpot; details: compound 0.5 µM; ATP 10 µM
Sequence (O15111 whole entry, looked up): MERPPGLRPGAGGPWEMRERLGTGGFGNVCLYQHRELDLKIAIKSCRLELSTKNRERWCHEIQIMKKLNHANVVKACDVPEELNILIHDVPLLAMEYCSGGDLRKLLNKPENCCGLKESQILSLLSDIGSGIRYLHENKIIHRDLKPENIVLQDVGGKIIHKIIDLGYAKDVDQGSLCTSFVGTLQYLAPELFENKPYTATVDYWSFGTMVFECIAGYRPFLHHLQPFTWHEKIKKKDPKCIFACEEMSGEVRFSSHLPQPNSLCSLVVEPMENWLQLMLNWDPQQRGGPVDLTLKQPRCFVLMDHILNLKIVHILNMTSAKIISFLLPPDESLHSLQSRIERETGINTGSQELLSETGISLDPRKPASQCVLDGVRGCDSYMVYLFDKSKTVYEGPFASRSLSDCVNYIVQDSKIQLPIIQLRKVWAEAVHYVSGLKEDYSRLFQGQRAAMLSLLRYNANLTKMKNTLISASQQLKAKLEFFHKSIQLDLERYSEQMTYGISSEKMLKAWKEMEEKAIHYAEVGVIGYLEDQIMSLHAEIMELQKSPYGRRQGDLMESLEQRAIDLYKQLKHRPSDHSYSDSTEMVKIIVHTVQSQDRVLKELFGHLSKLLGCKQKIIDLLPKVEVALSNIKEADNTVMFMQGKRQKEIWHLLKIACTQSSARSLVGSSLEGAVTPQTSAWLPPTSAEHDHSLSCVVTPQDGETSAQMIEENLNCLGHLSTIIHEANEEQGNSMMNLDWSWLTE
# reported residual activity; entries follow
# output: bare number, implied unit %

Below are worked cases with known answers.
structure smiles string: COc1cc2ncnc(Nc3ccc(O)c(Br)c3)c2cc1OC
readout label: residual activity
unit name: %
readout number: 107
//
structure smiles string: O=c1cc(N2CCOCC2)oc2c(-c3ccccc3)cccc12
readout label: residual activity
unit name: %
readout number: 104
//
structure smiles string: COc1cc2c(cc1OC)-c1[nH]nc(Nc3cccc(F)c3)c1C2
readout label: residual activity
unit name: %
readout number: 91.4

Recorded residual activity for `c1ccc(-c2cnc(Nc3ccc(OCCN4CCCC4)cc3)s2)cc1` , please?
93.3

Entry under review: `Nc1ncnc2c1cnn2-c1ccccc1` . Reported residual activity?
92.6

----------
target: CAMKK2 (human) (UniProt Q96RR4); experiment: radiometric filter-binding kinase assay, Kinase HotSpot; settings: compound 0.5 µM; ATP 10 µM
Sequence (Q96RR4 whole entry, looked up): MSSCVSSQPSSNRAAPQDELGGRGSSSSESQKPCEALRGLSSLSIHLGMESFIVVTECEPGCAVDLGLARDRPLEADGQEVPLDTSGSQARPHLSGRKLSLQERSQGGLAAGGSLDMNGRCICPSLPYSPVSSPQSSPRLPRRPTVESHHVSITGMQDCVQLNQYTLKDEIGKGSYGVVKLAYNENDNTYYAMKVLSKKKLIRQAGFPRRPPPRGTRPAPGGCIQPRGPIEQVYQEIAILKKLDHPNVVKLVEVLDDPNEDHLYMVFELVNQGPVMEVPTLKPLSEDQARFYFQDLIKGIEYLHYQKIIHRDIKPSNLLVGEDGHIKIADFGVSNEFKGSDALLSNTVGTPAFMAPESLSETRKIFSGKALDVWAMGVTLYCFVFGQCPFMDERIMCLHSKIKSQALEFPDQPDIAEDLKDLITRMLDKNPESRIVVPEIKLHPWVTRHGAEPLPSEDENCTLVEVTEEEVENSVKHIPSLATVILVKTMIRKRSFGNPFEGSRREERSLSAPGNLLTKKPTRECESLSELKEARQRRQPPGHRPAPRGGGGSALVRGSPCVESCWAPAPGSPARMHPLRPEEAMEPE
readout label: residual activity (%)
Numeric only. Scale: %

Before answering, review these 4 worked examples.
structure smiles string: CCOc1cc2ncnc(Nc3cccc(Br)c3)c2cc1OCC
tgt: CAMKK2 (human) (UniProt Q96RR4)
residual activity / %: 101
--
structure smiles string: COc1cc2c(cc1OC)-c1[nH]nc(Nc3cccc(F)c3)c1C2
tgt: CAMKK2 (human) (UniProt Q96RR4)
residual activity / %: 86.8
--
structure smiles string: COc1cc2ncnc(Nc3ccc(O)c(Br)c3)c2cc1OC
tgt: CAMKK2 (human) (UniProt Q96RR4)
residual activity / %: 92.4
--
structure smiles string: COc1cc2c(Nc3ccc(Br)cc3F)ncnc2cc1OCC1CCN(C)CC1
tgt: CAMKK2 (human) (UniProt Q96RR4)
residual activity / %: 102

Now for a further molecule.
Recorded residual activity of `Nc1ncnc2c1cnn2-c1ccccc1` , please.
86.8
